assay: protein stability index of a GFP-peptide fusion (yeast GPS) (PSI 1-4); higher = more stable; sorted into four equal gates, so the index is relative within each strain; details: pdr5∆
Decide using protein stability index: a value greater than or equal to 3 is t, a smaller one is f.

seq	assigned_label
EKKDSGSSKPAFSFGAK [YJL041W/NSP1]	t
NNDKREIQEELERFNKR [SMC1]	t
DLKRFVDESLLSTLPAG [QCR2]	t
SGEKIDFLLSDWNKRFS [BRR2]	f
DNKEKDFELEISWCSLS [PRE10]	t
LPLYEKNTLLERLKQLT [SWP82]	f
KTDFAKIINKPNELSQI [RPC82]	t
EKTLGKSLSKAISTGAK [RPN7]	t
AQFAGRASIEYYVGQVM [DIS3]	f
INLAMNESSLALEFVSL [SRB4]	f
SVDPQSSSTQNVFVILM [DIS3]	f
EFVHKYLGEGPRMVRDV [RPT3]	t
RSSSASNEFVPNTSDNN [SWI1]	f
PKNLLKKFIEISDVKIQ [PRP8]	f
RALQENGIIMNGTLIGC [YMR153W/NUP53]	f
FRSLFFRSYMDQEKKYG [RPB2]	f
RNADELSSYQKKIIKCD [PRE5]	f
KVYAQLLESYKTLSLKS [RPN7]	f
KLREPVARFLHFNGIRR [ITC1]	f
TGWHVDQAIVTETKRLV [DIB1]	f
QWFEAHYGQTLGKKKNV [RPS8A]	f
EIYKQLNDRQEEISRLQ [YIL149C/MLP2]	t
KIMQEATQSGGVRPFGV [PRE8]	f
ERVRNFAVIYLCDIDEV [DIB1]	f
LDPLEMEGNAQPVNFNR [RPO31]	t
NESSSNTTVISDKQRRL [DIS3]	t
